Target: T1, TerR43-138 (Aspergillus terreus SBUG844, UniProt Q0D1P5 43-138)
T1 sequence: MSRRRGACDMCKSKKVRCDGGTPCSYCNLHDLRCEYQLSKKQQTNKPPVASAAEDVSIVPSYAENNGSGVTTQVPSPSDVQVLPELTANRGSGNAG
Assay: SPR; molar ratio 1.04; SPR (Biacore 2000, SA-coated CM3 chip): 10 mM HEPES pH 7.4, 150 mM NaCl, 0.005% P20, 5 mM beta-mercaptoethanol, 1 uM ZnCl2, 25 C; protein 12.5-6400 nM; 1:1 model with mass transport
Conditions: protein: recombinant; (pET-29a; mass used 10218 Da); label: biotin on one strand; 18 bp duplex
Readout Name: Kd (µM)

• BS2 (dsDNA) DNA 1: TTATCGGACTTTCGGATT DNA 2: AATCCGAAAGTCCGATAA = 3.73
